Form field: Activity for human GIPR (EC50 nM), cAMP HTRF (one value per entry).
Target: T1, human glucose-dependent insulinotropic peptide receptor (human, UniProt P48546)
T1 sequence: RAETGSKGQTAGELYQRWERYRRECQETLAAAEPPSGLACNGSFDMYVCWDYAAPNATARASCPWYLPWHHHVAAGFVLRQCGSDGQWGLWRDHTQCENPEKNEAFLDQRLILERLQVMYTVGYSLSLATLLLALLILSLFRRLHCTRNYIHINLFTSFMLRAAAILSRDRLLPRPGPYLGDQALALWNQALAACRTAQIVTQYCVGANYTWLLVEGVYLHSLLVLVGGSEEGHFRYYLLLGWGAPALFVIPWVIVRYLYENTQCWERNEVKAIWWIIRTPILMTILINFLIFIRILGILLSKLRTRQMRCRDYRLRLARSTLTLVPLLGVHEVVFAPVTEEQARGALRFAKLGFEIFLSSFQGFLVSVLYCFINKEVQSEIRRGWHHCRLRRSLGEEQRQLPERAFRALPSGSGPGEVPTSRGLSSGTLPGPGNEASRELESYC
Experiment: cell-based or functional assay
Numbered stars: 1 amine (or outer) side, 2 acyl side, 3 side chain; on linkers, the order of the positions; unused ones are H or OH. Square brackets hold non-standard residues; d marks the D form. Side chains are listed from the residue outwards. Ends that are not written are not given here. γGlu = O=C(O)[C@H](CCC(=O)[*:2])N[*:1]; AEEA = NCCOCCOCC(=O)O; Aib = CC(C)(N)C(=O)O
OUTCOME_MEASURE: Activity for human GIPR (EC50 nM), cAMP HTRF

* Y[Aib]EGTFTSDYSIYLEKIAAK([AEEA-AEEA-γGlu-C20‑OH])EFVNWLLAGGPSSGAPPPS-NH2 [Compound No. 75] | 0.16
* H-Y[Aib]EGTFTSDYSIYLEKEAAKEFVNWLLAGGPSSGAPPPS-NH2 (not fully specified (residue 20); printed as H-YAibEGTFTSDYSIYLEKEAAK(OEG-OEG-yGlu-C18-OH)EFVNWLLAG / GPSSGAPPPS-NH2) [Compound No. 27] | 0.11
